# key: entry, value: cell viability
tested on: P12-Ichikawa; assay: cell viability relative to DMSO control; higher = less cytotoxic; conditions: HPLM + 10% dialyzed FBS; 48 h; 0.00234 µM
# output: bare number, implied unit %

Mol Smiles	Parameter Measured	Unit Name	Meas Value
CC[P](CC)(CC)=[Au][S][C@@H]1O[C@H](COC(C)=O)[C@@H](OC(C)=O)[C@H](OC(C)=O)[C@H]1OC(C)=O	cell viability	%	108
NCC/1=C/NC(=S)N1[C@H]2CCC3=C(F)C=C(F)C=C3C2	cell viability	%	114
C=C1C(=O)O[C@@H]2[C@H]3O[C@]3(C)CC/C=C(\C)CC[C@@H]12	cell viability	%	104

Record summary for OCCN1CCN(CCCN2c3ccccc3Sc3ccc(C(F)(F)F)cc32)CC1 : reported cell viability = 98.3

Record summary for NC(=O)[C@@H](CCC(F)(F)F)N(Cc1ccc(-c2ncon2)cc1F)[S+](=O)([O-])c1ccc(Cl)cc1 : reported cell viability = 98.7

Record summary for O=C(O)c1nn(Cc2ccc(Cl)cc2Cl)c2ccccc12 : reported cell viability = 93
